Let's look at some compounds and their measured Combined results on osteoclast differentiation (relative TRAP 5b activity), Mean ± SD.
test system: osteoclast precursors in mouse bone marrow; details: tables 4-6 combined, number 18 (LA 100) or 12; LA number = ng/ml lanthanum

In the examples that follow, each entry is paired with its recorded Combined results on osteoclast differentiation (relative TRAP 5b activity), Mean ± SD.
compound | test.target | recorded.result
O.O.O.O.O=C([O-])[O-].O=C([O-])[O-].O=C([O-])[O-].[La+3].[La+3] [LA 15000, lanthanum carbonate tetrahydrate] | osteoclast precursors in mouse bone marrow | 0.30 ± 0.19 (***)
O.O.O.O.O=C([O-])[O-].O=C([O-])[O-].O=C([O-])[O-].[La+3].[La+3] [LA 5000, lanthanum carbonate tetrahydrate] | osteoclast precursors in mouse bone marrow | 0.50 ± 0.20 (***)
O.O.O.O.O=C([O-])[O-].O=C([O-])[O-].O=C([O-])[O-].[La+3].[La+3] [LA 500, lanthanum carbonate tetrahydrate] | osteoclast precursors in mouse bone marrow | 0.89 ± 0.29
O.O.O.O.O=C([O-])[O-].O=C([O-])[O-].O=C([O-])[O-].[La+3].[La+3] [LA 1000, lanthanum carbonate tetrahydrate] | osteoclast precursors in mouse bone marrow | 0.65 ± 0.23 (**)

Attention now turns to another entry.
Input O.O.O.O.O=C([O-])[O-].O=C([O-])[O-].O=C([O-])[O-].[La+3].[La+3] [LA 100, lanthanum carbonate tetrahydrate] , output reported Combined results on osteoclast differentiation (relative TRAP 5b activity), Mean ± SD.
0.70 ± 0.27 (**)

###

system: mouse bone marrow derived osteoprogenitor cells; assay: In vitro osteoblast differentiation assay (cellular alkaline phosphatase); format: cell-based; details: tables 8-10 combined, number 18; LA number = ng/ml lanthanum; Control = Baseline+10^−10 M 17-estradiol
Let's look at some compounds and their measured Combined results on osteoblast differentiation (relative specific ALP activity), Mean ± SD.
Answer with the value's number alone.

compound | test.target | recorded.result
O.O.O.O.O=C([O-])[O-].O=C([O-])[O-].O=C([O-])[O-].[La+3].[La+3] [LA 500, lanthanum carbonate tetrahydrate] | mouse bone marrow derived osteoprogenitor cells | 0.94

Attention now turns to another entry.
Input O.O.O.O.O=C([O-])[O-].O=C([O-])[O-].O=C([O-])[O-].[La+3].[La+3] [LA 1000, lanthanum carbonate tetrahydrate] , output reported Combined results on osteoblast differentiation (relative specific ALP activity), Mean ± SD.
0.92

###

tested on: mouse bone marrow derived osteoprogenitor cells; test: In vitro osteoblast differentiation assay (cellular alkaline phosphatase); assay type: cell-based; settings: LA number = ng/ml lanthanum; lanthanum (III) ion = 100-15000 ng/ml; 17-estradiol 10^−10 M
property.label: Effect on osteoblast differentiation, in words

molecule | recorded.result
O.O.O.O.O=C([O-])[O-].O=C([O-])[O-].O=C([O-])[O-].[La+3].[La+3] [LA 5000, lanthanum carbonate tetrahydrate] | inhibited
O.O.O.O.O=C([O-])[O-].O=C([O-])[O-].O=C([O-])[O-].[La+3].[La+3] [LA 15000, lanthanum carbonate tetrahydrate] | inhibited

###

Tested on: osteoclast precursors in mouse bone marrow
Settings: second osteoclast differentiation assay; relative to mean of baseline group; with 1,25-dihydroxyvitamin D3; 6 days; LA number = ng/ml lanthanum
Description: A method known as mouse bone marrow culture system is the one most widely used to study osteoclast differentiation. Originally, this method was developed by Takahashi et al. (1988a). […] In the original culture system, the osteoclast formation was determined after an 8-day culture. […] The number of osteoclasts formed is generally determined by counting the number of TRAP-positive MNC containing at least three nuclei (Takahashi et al. 1988a). […]
property.label: Relative TRAP 5b activities, Mean ± SD

In the examples that follow, each entry is paired with its recorded Relative TRAP 5b activities, Mean ± SD.
compound | Relative TRAP 5b activities, Mean ± SD
O.O.O.O.O=C([O-])[O-].O=C([O-])[O-].O=C([O-])[O-].[La+3].[La+3] [LA 100, lanthanum carbonate tetrahydrate] | 0.54 ± 0.15(**)
O.O.O.O.O=C([O-])[O-].O=C([O-])[O-].O=C([O-])[O-].[La+3].[La+3] [LA 500, lanthanum carbonate tetrahydrate] | 1.07 ± 0.24
O.O.O.O.O=C([O-])[O-].O=C([O-])[O-].O=C([O-])[O-].[La+3].[La+3] [LA 1000, lanthanum carbonate tetrahydrate] | 0.69 ± 0.21
O.O.O.O.O=C([O-])[O-].O=C([O-])[O-].O=C([O-])[O-].[La+3].[La+3] [LA 5000, lanthanum carbonate tetrahydrate] | 0.56 ± 0.27(*)

Attention now turns to another entry.
Input O.O.O.O.O=C([O-])[O-].O=C([O-])[O-].O=C([O-])[O-].[La+3].[La+3] [LA 15000, lanthanum carbonate tetrahydrate] , output reported Relative TRAP 5b activities, Mean ± SD.
0.25 ± 0.07(***)
